The reader will find reported inhibition values listed item by item below.
- Tested on: Influenza A virus (A/Puerto Rico/8/1934(H1N1))
- Experiment summary: Inhibition of Influenza A virus A/Puerto Rico/8/1934(H1N1) neuraminidase at 40 ug/ml using MUNANA as substrate measured after 60 mins by fluorescence assay relative to control
- Stated conditions: dose 40.0 µg/ml
Could you give me the number in %? Just the number is fine.

Write down inhibition measured for item CCOC(=O)c1sc(/N=C2\NC(=O)/C(=C/c3ccc(C(=O)OC)cc3)S2)nc1C
50.1

###

- System: Influenza A virus (A/Puerto Rico/8/1934(H1N1))
- Experiment summary: Inhibition of Influenza A virus A/Puerto Rico/8/1934(H1N1) neuraminidase at 40 ug/ml using MUNANA as substrate measured after 60 mins by fluorescence assay relative to control
- Stated conditions: dose 40.0 µg/ml
Decide using inhibition: a value greater than or equal to 60% is Met, a smaller one is Not met.

Compound: CCOC(=O)Cc1csc(/N=C2\NC(=O)/C(=C/c3ccc(O)c(OC)c3)S2)n1
Experimental system: Influenza A virus (A/Puerto Rico/8/1934(H1N1))
Group: Met
--
Compound: CC(C)(C)c1nc(/N=C2\NC(=O)/C(=C/c3ccc([N+](=O)[O-])cc3)S2)sc1[N+](=O)[O-]
Experimental system: Influenza A virus (A/Puerto Rico/8/1934(H1N1))
Group: Not met
--
Compound: CCOC(=O)c1sc(/N=C2\NC(=O)C(c3ccccc3)S2)nc1C (stereo unspecified)
Experimental system: Influenza A virus (A/Puerto Rico/8/1934(H1N1))
Group: Not met
--
Compound: CC(C)(C)c1nc(/N=C2\NC(=O)/C(=C/c3cccc(F)c3)S2)sc1[N+](=O)[O-]
Experimental system: Influenza A virus (A/Puerto Rico/8/1934(H1N1))
Group: Met
--
Compound: CCOC(=O)Cc1csc(/N=C2\NC(=O)/C(=C/c3cccc(OC)c3O)S2)n1
Experimental system: Influenza A virus (A/Puerto Rico/8/1934(H1N1))
Group: Met
--
Compound: CCOC(=O)c1sc(/N=C2\NC(=O)/C(=C/c3ccc(C(=O)O)cc3)S2)nc1C
Experimental system: Influenza A virus (A/Puerto Rico/8/1934(H1N1))
Group: Met
--
Compound: CC(C)(C)c1nc(/N=C2\NC(=O)/C(=C/c3cccc([N+](=O)[O-])c3)S2)sc1[N+](=O)[O-]
Experimental system: Influenza A virus (A/Puerto Rico/8/1934(H1N1))
Group: Not met
--
Compound: CCOC(=O)c1sc(/N=C2\NC(=O)/C(=C/c3cccc(OC)c3O)S2)nc1C
Experimental system: Influenza A virus (A/Puerto Rico/8/1934(H1N1))
Group: Met

Test whether the compound CCOC(=O)Cc1csc(/N=C2\NC(=O)/C(=C/c3ccc(O)cc3)S2)n1 records inhibition of 60% or higher.
Met

Test whether the compound CCOC(=O)c1sc(/N=C2\NC(=O)/C(=C/c3cccc(N)c3)S2)nc1C records inhibition of 60% or higher.
Met

Test whether the compound CCOC(=O)c1sc(/N=C2\NC(=O)/C(=C/c3ccc(O)cc3O)S2)nc1C records inhibition of 60% or higher.
Met

Test whether the compound CCOC(=O)c1sc(NC(=S)NC(=O)/C=C/c2ccc(O)c(OC)c2)nc1C records inhibition of 60% or higher.
Met

Test whether the compound COc1cc(/C=C2\S/C(=N/c3nc(C)c(C(C)=O)s3)NC2=O)ccc1O records inhibition of 60% or higher.
Met

Test whether the compound CC(=O)c1sc(/N=C2\NC(=O)/C(=C/c3ccc(O)cc3)S2)nc1C records inhibition of 60% or higher.
Met

Test whether the compound CCCc1nc(/N=C2\NC(=O)CS2)sc1C(=O)OC records inhibition of 60% or higher.
Not met

Test whether the compound CCOC(=O)c1sc(/N=C2\NC(=O)/C(=C/c3ccccc3O)S2)nc1C records inhibition of 60% or higher.
Met

Test whether the compound CC(C)(C)c1nc(/N=C2\NC(=O)/C(=C/c3ccc(O)cc3)S2)sc1[N+](=O)[O-] records inhibition of 60% or higher.
Met

Test whether the compound Cc1nc(/N=C2\NC(=O)CS2)sc1C(=O)O records inhibition of 60% or higher.
Met

Test whether the compound CC(=O)c1sc(/N=C2\NC(=O)/C(=C/c3ccc(C(=O)O)cc3)S2)nc1C records inhibition of 60% or higher.
Met

Test whether the compound CC(=O)c1sc(/N=C2\NC(=O)/C(=C/c3cccc(N)c3)S2)nc1C records inhibition of 60% or higher.
Not met
